# collection of IC50 values tested on Acetylcholinesterase (Electrophorus electricus, UniProt O42275)
# Sequence (O42275 whole entry): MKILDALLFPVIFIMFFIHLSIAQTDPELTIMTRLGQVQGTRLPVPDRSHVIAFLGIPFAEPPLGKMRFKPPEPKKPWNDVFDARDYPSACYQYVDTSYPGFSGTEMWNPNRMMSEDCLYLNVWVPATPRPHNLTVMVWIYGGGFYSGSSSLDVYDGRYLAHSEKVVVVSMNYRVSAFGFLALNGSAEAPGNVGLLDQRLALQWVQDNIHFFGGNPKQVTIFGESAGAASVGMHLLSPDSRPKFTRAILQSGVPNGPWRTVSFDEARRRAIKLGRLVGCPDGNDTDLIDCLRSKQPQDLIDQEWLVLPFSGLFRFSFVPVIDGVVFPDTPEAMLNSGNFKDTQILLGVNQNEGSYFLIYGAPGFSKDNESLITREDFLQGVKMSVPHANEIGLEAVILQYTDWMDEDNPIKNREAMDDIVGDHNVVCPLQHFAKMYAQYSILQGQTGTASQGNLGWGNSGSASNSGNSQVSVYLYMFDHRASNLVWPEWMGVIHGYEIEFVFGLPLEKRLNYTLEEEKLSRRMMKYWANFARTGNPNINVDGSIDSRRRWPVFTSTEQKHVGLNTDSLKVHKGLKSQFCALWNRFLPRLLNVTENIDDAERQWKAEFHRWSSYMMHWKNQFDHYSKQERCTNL
Report the figure in µM without appending any unit label.

{"SMILES REPR": "C#Cc1ccc(NC(=O)OCC[Si](C)(C)C)cc1", "MEASURED TARGET": "Acetylcholinesterase (Electrophorus electricus, UniProt O42275)", "ASSAY RESULT": 34.4}

As a next step, examine the compound that follows.
Requested field: IC50. Item: C#Cc1ccc(OC(=O)OCCC(C)(C)C)cc1
59
